Catalogue of pEC50 values
Target: Cannabinoid receptor 2 (Homo sapiens, UniProt P34972)
Sequence (P34972 whole entry): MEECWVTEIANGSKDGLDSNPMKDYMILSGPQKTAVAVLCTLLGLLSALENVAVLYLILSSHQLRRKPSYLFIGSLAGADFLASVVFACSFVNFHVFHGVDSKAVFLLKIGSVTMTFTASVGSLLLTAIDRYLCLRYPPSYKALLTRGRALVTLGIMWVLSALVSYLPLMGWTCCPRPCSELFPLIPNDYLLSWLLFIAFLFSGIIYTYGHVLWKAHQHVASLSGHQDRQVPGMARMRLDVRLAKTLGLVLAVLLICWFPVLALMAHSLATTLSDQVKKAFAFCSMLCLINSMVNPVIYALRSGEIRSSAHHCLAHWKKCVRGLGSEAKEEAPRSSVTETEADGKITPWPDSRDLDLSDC
Assay: Agonist activity at human recombinant CB2 receptor expressed in CHO cell membranes by [35S]GTPgammaS binding assay
Type: functional
// pEC50 is dimensionless: -log10 of concentration (M)

* CCCCCc1cc(O)cc(OCCCCCCCCCCC(=O)Nc2ccccc2)c1 | 6.15

Would you mind telling me what pEC50 value was observed for `C=CCNC(=O)CCCCCCCOc1cc(O)cc(C(C)(C)CCCCCC)c1` ?
7.35

----------
Target: UniProt:P21554
Sequence (P21554 whole entry): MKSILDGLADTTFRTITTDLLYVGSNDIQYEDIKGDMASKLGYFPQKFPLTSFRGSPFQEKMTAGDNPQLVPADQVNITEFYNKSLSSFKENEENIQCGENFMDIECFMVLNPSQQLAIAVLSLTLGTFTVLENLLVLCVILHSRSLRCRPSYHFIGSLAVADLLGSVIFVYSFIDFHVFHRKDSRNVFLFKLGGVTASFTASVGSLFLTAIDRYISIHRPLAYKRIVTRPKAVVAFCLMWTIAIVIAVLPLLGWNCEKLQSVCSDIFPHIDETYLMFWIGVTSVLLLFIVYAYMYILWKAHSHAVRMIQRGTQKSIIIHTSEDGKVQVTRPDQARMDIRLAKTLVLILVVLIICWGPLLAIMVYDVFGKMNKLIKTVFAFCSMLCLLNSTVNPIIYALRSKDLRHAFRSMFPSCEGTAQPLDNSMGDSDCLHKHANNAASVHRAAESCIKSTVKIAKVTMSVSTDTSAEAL
Assay: Displacement of [3H]CP-55,940 from human recombinant CB1 receptor expressed in HEK293 cell membranes
In plain terms, low Ki, meaning strictly below 2000 nM, gives true (1), and everything else gives false (0).

Some solved entries appear below for comparison.
- C=CCNC(=O)CCCCCCCOc1cc(O)cc(C(C)(C)CCCCCC)c1: true (1)
- CCCCCc1cc(O)cc(OCCCCCCCCCCC(=O)Nc2ccccc2)c1: false (0)
- CCCCCCC(C)(C)c1cc(O)cc(OCCCCCCCC(=O)NCC(F)(F)F)c1: true (1)
- CCCCCCc1ccc(O)cc1OCCCCCCCCCCCNC(=O)C1CC1: true (1)
- CCCCCc1cc(O)cc(OCCCCCCCCCCCNC(=O)C2CC2)c1: false (0)

Identify whether the molecule `CCCCCc1cc(O)cc(OCCCCCCCCCCC(=O)NN2CCCCC2)c1` records Ki below 2000 nM.
true (1)
